The values you see were collected from ChEMBL document CHEMBL1133874.

Each entry below lists one item and its recorded IC50 value.
- test-system: Metabotropic glutamate receptor 3 (Rattus norvegicus, UniProt P31422)
- Sequence (P31422 whole entry): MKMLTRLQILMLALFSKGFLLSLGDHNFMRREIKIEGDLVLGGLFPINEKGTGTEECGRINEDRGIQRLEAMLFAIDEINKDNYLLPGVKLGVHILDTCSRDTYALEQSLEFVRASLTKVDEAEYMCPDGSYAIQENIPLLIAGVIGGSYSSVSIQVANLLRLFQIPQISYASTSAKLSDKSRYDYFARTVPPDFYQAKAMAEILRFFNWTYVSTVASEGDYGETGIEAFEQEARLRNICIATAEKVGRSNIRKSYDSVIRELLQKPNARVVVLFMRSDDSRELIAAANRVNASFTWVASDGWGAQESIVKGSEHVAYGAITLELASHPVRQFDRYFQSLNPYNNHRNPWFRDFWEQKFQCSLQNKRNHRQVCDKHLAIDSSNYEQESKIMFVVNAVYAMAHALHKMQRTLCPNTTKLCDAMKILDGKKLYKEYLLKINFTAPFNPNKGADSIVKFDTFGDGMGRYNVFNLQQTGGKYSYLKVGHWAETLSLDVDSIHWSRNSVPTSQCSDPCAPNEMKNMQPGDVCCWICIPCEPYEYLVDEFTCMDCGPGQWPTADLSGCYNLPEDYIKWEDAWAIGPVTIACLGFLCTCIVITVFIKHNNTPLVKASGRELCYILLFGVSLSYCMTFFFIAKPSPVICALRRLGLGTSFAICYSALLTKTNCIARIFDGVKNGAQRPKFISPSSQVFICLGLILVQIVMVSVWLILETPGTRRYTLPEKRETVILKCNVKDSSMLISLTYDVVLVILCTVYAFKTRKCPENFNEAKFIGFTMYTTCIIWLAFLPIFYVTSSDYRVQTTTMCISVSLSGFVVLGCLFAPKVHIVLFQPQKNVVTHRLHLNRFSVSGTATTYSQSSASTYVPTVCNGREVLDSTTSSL
- experimental-details: Inhibitory concentration required for antagonistic activity at Metabotropic glutamate receptor 3
- Type: functional
A number alone suffices; assume µM.

Name the reported IC50 value associated with the compound N[C@]1(C(=O)O)C[C@H](C(=O)O)N(C(C(=O)O)c2ccccc2)C1 (some centres not stated) 21

Next:
May I ask what IC50 has been recorded for N[C@]1(C(=O)O)C[C@H](C(=O)O)N(Cc2ccccc2O)C1 ? 27

Any idea what IC50 was measured for COc1ccc(CN2C[C@@](N)(C(=O)O)C[C@@H]2C(=O)O)cc1 ? 190

Which IC50 is reported for this compound? CC(N)(C(=O)O)c1ccc(C(=O)O)cc1 (configuration not stated) 270

Please give the measured IC50 for this compound: CC(N)(C(=O)O)C1CC1C(=O)O (configuration not stated) 68

Form field: reported IC50 of N[C@]1(C(=O)O)C[C@H](C(=O)O)N(Cc2cccc([N+](=O)[O-])c2)C1 93

Requested field: IC50. Item: Cl.Cl.N[C@]1(C(=O)O)C[C@H](C(=O)O)N(Cc2ccccc2C#Cc2ccccc2)C1 23
